target: recombinant SARS-CoV-2 main protease (Mpro) (Severe acute respiratory syndrome coronavirus 2); construct: the main protease (Mpro; also called 3CLpro) which has an essential role in processing the polyproteins; assay: biochemical; conditions: FRET assay, Mpro 50 nM, substrate 10 μM
pIC50: −log10 of the molar value.
assay.readout: pIC50

Below, each entry is followed by its recorded pIC50 result.
{"molecule": "O=C1CCC(N2C(=O)c3cccc(NCCOCCNC(=O)C(NC(=O)[C@@H](c4cccnc4)N(C(=O)c4ccco4)c4ccc5c(c4)oc4ccccc45)c4ccccc4)c3C2=O)C(=O)N1 (mixture of isomers)", "observed": "> 5.00"}
{"molecule": "O=C1CCC(N2C(=O)c3ccc(NCCOCCNC(=O)[C@H](NC(=O)[C@@H](c4cccnc4)N(C(=O)c4ccco4)c4ccc(-c5ccccc5)cc4)c4ccccc4)cc3C2=O)C(=O)N1 (single isomer, unassigned)", "observed": "> 6.00"}
{"molecule": "O=C1CCC(N2C(=O)c3ccc(NCCOCCOCCOCCNC(=O)[C@H](NC(=O)[C@@H](c4cccnc4)N(C(=O)c4ccco4)c4ccc(-c5ccccc5)cc4)c4ccccc4)cc3C2=O)C(=O)N1 (single isomer, unassigned)", "observed": "> 7.00"}
{"molecule": "O=C1CCC(N2C(=O)c3ccc(NCCCCCCNC(=O)c4ccc5c(N6C(=O)NC7(CC(c8ccccc8Cl)C7)C6=O)cncc5c4)cc3C2=O)C(=O)N1 (centres unmarked) [Compound C10778W]", "observed": "> 6.00"}

Turning to the following molecule.
Notebook: O=C1CCC(N2C(=O)c3cccc(OCCNC(=O)c4ccc5c(N6C(=O)NC7(CC(c8ccccc8Cl)C7)C6=O)cncc5c4)c3C2=O)C(=O)N1 (centres unmarked) [Compound C10778V] , pIC50 read as > 7.00
